System: MOLT-4 leukemia
Test: NCI-60 one-dose screen, 48 h (100 = growth as untreated, 0 = no growth, -100 = all killed)
Conditions: 10 µM
Procedure: Growth inhibition of the MOLT-4 human tumor cell line is measured as a screen for anti-cancer activity. Cells are grown in 96 well plates and exposed to the test compound for 48 hours. Compounds are tested at a single concentration, which is 10^-5 M for most compounds. The reported endpoint is percent growth (GI% or GIPRCNT), where numbers from 0 - 100% represent growth inhibition, and numbers from -100% - 0 represent cell death. For example, a value of 40 represents 60% growth inhibition. […]
The panel holds about 83,000 compounds, 20% with a hit somewhere; the sample as a whole holds those more often.
growth by entry:
Entry rule: numbers only, all in %.

// solved cases for growth follow
compound	systemTested	unitTag	growth
COC(=O)[C@]12CC[C@@H](C)[C@H](C)[C@@H]1C1=CC[C@@H]3[C@@]4(C)C/C(=N\O)[C@H](O)[C@@]5(C)COC(=C45)C[C@@]3(C)[C@]1(C)CC2	MOLT-4 leukemia	%	-62.9
CCOC(=O)c1cc2c(n1Cc1ccccc1)-c1oncc1CC2	MOLT-4 leukemia	%	25.2

Prompt: Which measured growth value corresponds to Cn1c(N)c(N=Cc2ccccc2)c(=O)n(C)c1=O ?
Response: 99.4

Prompt: Which measured growth value corresponds to COC(=O)[C@]12CC[C@@H](C)[C@H](C)[C@@H]1C1=CC[C@@H]3[C@@]4(C)CC(=O)[C@H](O)[C@@]5(C)COC(=C45)C[C@@]3(C)[C@]1(C)CC2 ?
Response: -54.9

Prompt: Which measured growth value corresponds to NC1CCC(Nc2nc(NCc3ccc(-c4ccco4)nc3)c3ncn(C4CCCC4)c3n2)CC1 (centres undefined) ?
Response: -12.3

Prompt: Which measured growth value corresponds to CCn1nc(-c2ccccn2)c2cccnc2c1=S ?
Response: 57.5

Prompt: Which measured growth value corresponds to COC(=O)[C@]12CC[C@@H](C)[C@H](C)[C@@H]1C1=CC[C@@H]3[C@@]4(C)C[C@@H](O)[C@H](O)[C@@](C)(CO)[C@@H]4[C@H](O)C[C@@]3(C)[C@]1(C)CC2 ?
Response: -51.9

Prompt: Which measured growth value corresponds to Cc1cc(Cl)ccc1Nc1nc(C(F)(F)F)ccc1C(=O)N/N=C/c1ccccc1Cl ?
Response: 41.2

Prompt: Which measured growth value corresponds to COc1ccc(C2CC(c3ccc(-c4ccccc4)cc3)=NN2c2ccc(S(N)(=O)=O)cc2)cc1 (centres undefined) ?
Response: 54.8

Prompt: Which measured growth value corresponds to CN(C)c1ccc2c(c1)OC(N)=C(C#N)C2c1ccc2c(c1)CCO2 (centres undefined) ?
Response: 34.5

Prompt: Which measured growth value corresponds to CCc1ccc(-c2nnc(COc3ccc(-c4nc5ccc(C)cc5[nH]4)cc3OC)o2)cc1 ?
Response: 38.6

Prompt: Which measured growth value corresponds to C#CCn1c(-c2cccc(OCCCCl)c2)nc2c1c(=O)n(C)c(=O)n2C ?
Response: 2.33

Prompt: Which measured growth value corresponds to Cc1nnc2c3nnc(-c4ccc(Cl)cc4)n3c3ccccc3n12 ?
Response: 89.9

Prompt: Which measured growth value corresponds to COc1ccc(Cn2cc3c(c2-c2cc(OC)c(OC)c(OC)c2)CCc2cnoc2-3)cc1[N+](=O)[O-] ?
Response: 30

----------
test system: MALME-3M melanoma; experiment: NCI-60 one-dose screen, 48 h (100 = growth as untreated, 0 = no growth, -100 = all killed); conditions: 10 µM
Compounds without any hit were thinned out: in the full panel of roughly 83,000, 20% have a hit. The source made the active and inactive calls. Rule for the calls: active = growth percent below 10; inactive = the rest.
growth by entry:

molecule	growth
O=S(=O)(NCl)c1ccccc1	97.5% (inactive)

Prompt: Which measured growth value corresponds to Cc1ccc(C)c2c1sc1nc3n[nH]c(N)c3c(=N)n12 ?
Response: 128% (inactive)

Prompt: Which measured growth value corresponds to C=CCc1cc(Nc2c3ccc(Cl)cc3nc3ccc(OC)cc23)cc(CN(CC)CC)c1O ?
Response: 2.15% (active)

Prompt: Which measured growth value corresponds to COc1cc(C2C(C#N)=C(c3c[nH]c4ccccc34)Nc3nc(N)[nH]c(=O)c32)cc(OC)c1OC (stereo not drawn) ?
Response: 71.1% (inactive)

Prompt: Which measured growth value corresponds to Cc1cc(/C=C2\SC(=Nc3ccccc3)N(C3CCCC3)C2=O)c(C)n1-c1ccc(Cl)cc1 ?
Response: -72.8% (active)

Prompt: Which measured growth value corresponds to Nc1nc2c(nnn2C2CC(O)C(CO)O2)c(=O)[nH]1 (stereo not drawn) ?
Response: 79.5% (inactive)

Prompt: Which measured growth value corresponds to O=c1[nH]c(=O)n(C2C[C@@H](O)[C@@H](CO)O2)cc1F (stereo partly drawn) ?
Response: 52.7% (inactive)

Prompt: Which measured growth value corresponds to O=C(O)CN1C(=O)C=CC1=O ?
Response: 97.7% (inactive)

Prompt: Which measured growth value corresponds to O=C1/C(=C/c2ccc(O)cc2)CSc2ccc(Cl)cc21 ?
Response: 111% (inactive)

Prompt: Which measured growth value corresponds to C=CCOc1ccc2c(c1)CC=C1[C@@H]2CC[C@]2(C)C(=O)/C(=N/O)C[C@@H]12 ?
Response: 96.2% (inactive)

Prompt: Which measured growth value corresponds to Fc1ccc(Nc2ccnc(N3CCN(c4ccnc5cc(Cl)ccc45)CC3)n2)cc1 ?
Response: 52.9% (inactive)

Prompt: Which measured growth value corresponds to FC(F)(F)c1ccc(-c2cnc(Br)nc2NC2CCCCCC2)cc1 ?
Response: -42.4% (active)

Prompt: Which measured growth value corresponds to COc1ccc2nc(-c3ccccc3)cc(C(C)=O)c2c1 ?
Response: 86.5% (inactive)

Prompt: Which measured growth value corresponds to CN(C)Cc1cccs1 ?
Response: 96.7% (inactive)

Prompt: Which measured growth value corresponds to COC(=O)[C@]12CC[C@@H](C)[C@H](C)[C@@H]1C1=CC[C@@H]3[C@@]4(C)C/C(=N\O)[C@H](O)[C@@]5(C)COC(=C45)C[C@@]3(C)[C@]1(C)CC2 ?
Response: -71.1% (active)

Prompt: Which measured growth value corresponds to CC(C)=C1CCC(C)C/C1=N\N=C(N)N (stereo not drawn) ?
Response: 100% (inactive)

Prompt: Which measured growth value corresponds to Cc1cc(C)c2nc(C)c(C)[n+]([O-])c2c1 ?
Response: 95.6% (inactive)

Prompt: Which measured growth value corresponds to O=C/C=C/c1ccc([N+](=O)[O-])cc1Cl ?
Response: 95.1% (inactive)

Prompt: Which measured growth value corresponds to O=C(N/N=C\c1cc(Cl)ccc1O)c1ccncc1 ?
Response: 80% (inactive)

Prompt: Which measured growth value corresponds to Nc1ncncc1-c1ccc(F)cc1 ?
Response: 112% (inactive)

Prompt: Which measured growth value corresponds to CN(C)c1ccc2c(c1)OC(N)=C(C#N)C2c1ccc2c(c1)CCCN2C (stereo not drawn) ?
Response: 67.8% (inactive)

Prompt: Which measured growth value corresponds to CCCCOCCOCCOCc1cc2c(cc1Br)OCO2 ?
Response: 94.8% (inactive)

Prompt: Which measured growth value corresponds to COc1ccc(OC)c([N+](=O)[O-])c1C=O ?
Response: 108% (inactive)

----------
tested on: HS 578T breast; assay: NCI-60 one-dose screen, 48 h (100 = growth as untreated, 0 = no growth, -100 = all killed); conditions: 10 µM
Compounds without any hit were thinned out: in the full panel of roughly 83,000, 20% have a hit. Activity calls are given as the source filed them. The calls were made as follows: active = growth percent below 10; inactive = the rest.
metric: growth

// solved cases for growth follow
molecule	growth
O=NN(CC(=O)N/N=C/C=C\c1ccccc1)CC(=O)N/N=C/C=C/c1ccccc1	80.5% (inactive)
Cc1c(C(=O)N[C@H](CO)Cc2ccccc2)[nH]c2ccc(Cl)cc2c1=O	102% (inactive)
CNC(=O)c1cc(Oc2ccc(NC(=O)Nc3ccc(Cl)c(OC4CCCCC4)c3)c(F)c2)ccn1	66% (inactive)

Prompt: Which measured growth value corresponds to CCSc1nc2c([nH]1)c(=O)n(C)c(=S)n2C ?
Response: 115% (inactive)

Prompt: Which measured growth value corresponds to CCCCCC(=O)N1c2ccccc2NC2=C(C(=O)CC(c3ccc(OC)c(OC)c3)C2)C1c1ccc(C(F)(F)F)cc1 (stereo unspecified) ?
Response: 78.7% (inactive)

Prompt: Which measured growth value corresponds to COc1ccc(OC)c([N+](=O)[O-])c1C=O ?
Response: 89.6% (inactive)

Prompt: Which measured growth value corresponds to N=C(N)c1ccc(-c2ccc(-c3ccccc3)s2)s1 ?
Response: -21% (active)

Prompt: Which measured growth value corresponds to Cc1nc(Nc2nc3ccccc3o2)nc(-c2cccc([N+](=O)[O-])c2)c1C(=O)Nc1ccc(F)c(Cl)c1 ?
Response: 4.55% (active)

----------
tested on: SNB-19 CNS; test: NCI-60 one-dose screen, 48 h (100 = growth as untreated, 0 = no growth, -100 = all killed); conditions: 10 µM
The panel holds about 83,000 compounds, 20% with a hit somewhere; the sample as a whole holds those more often.
growth by entry:
Entry rule: numbers only, all in %.

Prompt: Which measured growth value corresponds to COc1cc(-c2nc3ccc(C)cc3[nH]2)ccc1OCC(=O)N=Nc1c(O)[nH]c2ccccc12 ?
Response: -75.2

Prompt: Which measured growth value corresponds to O=C1CC[C@@H](C(=O)N[C@H]2CSSC[C@@H](C(=O)NCCc3ccccc3)NC(=O)[C@H](Cc3ccccc3)NC(=O)[C@@H]3CCCN3C(=O)[C@@H]3CCCN3C2=O)N1 ?
Response: 102

Prompt: Which measured growth value corresponds to CNCCCNCCCN1C(=O)c2ccc3c4c(ccc(c24)C1=O)C(=O)N(CCCNCc1ccccc1OC)C3=O ?
Response: 36.6

Prompt: Which measured growth value corresponds to CC(=O)/C(=C\c1ccc(Cl)cc1)c1ccccc1 ?
Response: 29.7
